test.summary: Cytotoxicity against HEK293 cells assessed as inhibition of cell growth at 80 uM after 72 hrs by alamar blue assay relative to control
Format: cell-based
assay.conditions: human, read-out: GI
result.type: inhibition at 72 h, 80 µM
Include the unit right after the number.

Qu. Consider the molecule shown here: CC(C)=CCCc1cnc2c(C)cc(O)c3c2c1CC[C@H]3C What is its recorded inhibition at 72 h, 80 µM?
Ans. 62%

* * *

test.summary: Selectivity index, ratio of IC50 for HEK293 cells to IC50 for chloroquine-resistant Plasmodium falciparum Dd2
Type: toxicity
assay.conditions: human; read-out: Ratio IC50
result.type: selectivity ratio
Write no unit; give the number alone.

Qu. Consider the compound shown here: COc1ccc(C[C@H](N)C(=O)N[C@H]2[C@@H](O)[C@H](n3cnc4c(N(C)C)ncnc43)O[C@@H]2CO)cc1 What is its recorded selectivity ratio?
Ans. 10.5

Qu. Consider the compound shown here: CC(C)=CCCc1cnc2c(C)cc(O)c3c2c1CC[C@H]3C What is its recorded selectivity ratio?
Ans. 2.3

Qu. Consider the compound shown here: C[C@H]1[C@H](OC(=O)CCC(=O)O)O[C@@H]2O[C@@]3(C)CC[C@H]4[C@H](C)CC[C@@H]1[C@@]24OO3 [ARTESUNATE] What is its recorded selectivity ratio?
Ans. 10000
